Assay: Survival of human 2780.9S cells at 10 uM under deem light after 96 hrs by MTT assay relative to control
Format: functional
Settings: read-out: Survival
result-type: viability at 10 µM (%)
One number for each entry, in %.

Please review the entries below; each comes with its answer.
| compound | viability at 10 µM [%] |
| --- | --- |
| COc1cccc2c1C(=O)c1c(O)c3c(c(O)c1C2=O)C[C@@](O)(C(=O)CO)C[C@@H]3O[C@H]1C[C@H](N)[C@H](O)[C@H](C)O1 | 56.9 |
| C=Cc1c(C)c2cc3nc(c4c5[nH]c(cc6nc(cc1[nH]2)C(C)=C6CC)c(C)c5C(=O)[C@@H]4C(=O)OC)[C@@H](CCC(=O)OC)[C@@H]3C [METHYL PHEOPHORBIDE A] | 93.4 |
| C=Cc1c(C)c2cc3nc(c(CC(=O)OC)c4[nH]c(cc5nc(cc1[nH]2)C(C)=C5CC)c(C)c4C(=O)NCCO)C(CCC(=O)OC)C3C (centres undefined) [PHEOPHORBIDE A ETHANOLAMIDE] | 99 |

Now turn to the next compound.
**Q:** Query: viability at 10 µM; subject: CC1=C(CCC(=O)O)c2cc3nc(cc4[nH]c(cc5[nH]c(cc1n2)c(C)c5C(C)O)c(C)c4C(C)O)C(C)=C3CCC(=O)O (centres undefined)
**A:** 75.5
